System: HT-1197 cells
Experiment: Cell-based assay: anti-proliferative activity, Cell Counting Kit-8, 72 hours (HT-1197, negative control without MELK expression)
Conditions: Homo sapiens, HT1197, 72 h, HT1197 cells (negative control, no MELK expression), 72 hours
Structures can show the parent of a compound that is named as a salt.
This section presents molecules with their documented IC50 values.

>  <molecule>
CC(=O)c1cnc2ccc(-c3cc(Cl)c(O)c(Cl)c3)cc2c1N[C@H]1C[C@H](CN(C)C)C1

>  <tested-system>
HT-1197 cells

>  <IC50, µM>
3.2

$$$$
>  <molecule>
CC(C)C(=O)c1cnc2ccc(-c3cc(F)c(O)c(Cl)c3)cc2c1Nc1ccc(N2CCNCC2)nc1

>  <tested-system>
HT-1197 cells

>  <IC50, µM>
2.4

$$$$
>  <molecule>
CCC(=O)c1cnc2ccc(-c3cc(Cl)c(O)c(Cl)c3)cc2c1Nc1ccc(N2CCN(C)CC2)nc1

>  <tested-system>
HT-1197 cells

>  <IC50, µM>
10

$$$$
>  <molecule>
CC(=O)c1cnc2ccc(-c3cc(F)c(O)c(F)c3)cc2c1N[C@H]1CC[C@H](CN(C)C)CC1

>  <tested-system>
HT-1197 cells

>  <IC50, µM>
3.4

$$$$
>  <molecule>
CN(C)C[C@]1(O)CC[C@@H](Nc2c(C(=O)C3CC3)cnc3ccc(-c4cc(Cl)c(O)c(Cl)c4)cc23)CC1

>  <tested-system>
HT-1197 cells

>  <IC50, µM>
1.4

$$$$
>  <molecule>
CCN(C)C[C@H]1CC[C@H](Nc2c(C(C)=O)cnc3ccc(-c4cc(Cl)c(O)c(OC)c4)cc23)CC1 [Example 816, hydrochloride]

>  <tested-system>
HT-1197 cells

>  <IC50, µM>
7.3

$$$$
>  <molecule>
O=C(c1cnc2ccc(-c3cc(F)c(O)c(Cl)c3)cc2c1Nc1cccc(CCN2CCCC2)c1)C1CC1

>  <tested-system>
HT-1197 cells

>  <IC50, µM>
10

$$$$

---

Molecular target: MELK (Homo sapiens)
Experiment: Kinase assay: MELK activity, phosphorylation of FITC-labeled histone H3 peptide measured by IMAP fluorescence polarization
Type: biochemical
Settings: MELK kinase assay, IMAP fluorescence polarization, 50 micro-M ATP; read-out: IC50 (μM) (kinase assay)
Structures can show the parent of a compound that is named as a salt.
measured-property: IC50 (µM)

>  <compound>
CC(=O)c1cnc2ccc(-c3cc(Cl)c(O)c(Cl)c3)cc2c1Nc1ccc(CN(C)C)cc1 [Example 374]

>  <result-units>
µM

>  <result-number>
0.0066

$$$$
>  <compound>
CC(=O)c1cnc2ccc(-c3cc(Cl)c(O)c(Cl)c3)cc2c1Nc1cccc(CCN2CCN(C)CC2)c1 [Example 831]

>  <result-units>
µM

>  <result-number>
0.0054

$$$$
>  <compound>
CC(=O)c1cnc2ccc(-c3ccncc3)cc2c1N[C@H]1CC[C@H](CN(C)C)CC1 [Example 908, hydrochloride]

>  <result-units>
µM

>  <result-number>
0.23

$$$$
>  <compound>
CC(=O)c1cnc2ccc(-c3cc(F)c(O)c(Cl)c3)cc2c1Nc1cncc(CCN2CCCC2)c1 [Example 880, hydrochloride]

>  <result-units>
µM

>  <result-number>
0.04

$$$$
>  <compound>
CN(C)C[C@H]1CC[C@H](Nc2c(C(=O)C3CC3)cnc3ccc(-c4cc(Cl)c(O)c(Cl)c4)cc23)CC1 [Example 324]

>  <result-units>
µM

>  <result-number>
0.00085

$$$$
>  <compound>
CC(=O)c1cnc2ccc(-c3cc(F)c(O)c(Cl)c3)cc2c1N[C@H]1CC[C@H](CN(C)C)CC1 [Example 378]

>  <result-units>
µM

>  <result-number>
0.0061

$$$$
>  <compound>
CC(=O)c1cnc2cc(F)c(-c3cc(F)c(O)c(Cl)c3)cc2c1N[C@H]1CC[C@H](CN2CCCC2)CC1 [Example 925, hydrochloride]

>  <result-units>
µM

>  <result-number>
0.019

$$$$

---

Target: MELK (Homo sapiens, UniProt Q14680)
Sequence (Q14680 whole entry, looked up): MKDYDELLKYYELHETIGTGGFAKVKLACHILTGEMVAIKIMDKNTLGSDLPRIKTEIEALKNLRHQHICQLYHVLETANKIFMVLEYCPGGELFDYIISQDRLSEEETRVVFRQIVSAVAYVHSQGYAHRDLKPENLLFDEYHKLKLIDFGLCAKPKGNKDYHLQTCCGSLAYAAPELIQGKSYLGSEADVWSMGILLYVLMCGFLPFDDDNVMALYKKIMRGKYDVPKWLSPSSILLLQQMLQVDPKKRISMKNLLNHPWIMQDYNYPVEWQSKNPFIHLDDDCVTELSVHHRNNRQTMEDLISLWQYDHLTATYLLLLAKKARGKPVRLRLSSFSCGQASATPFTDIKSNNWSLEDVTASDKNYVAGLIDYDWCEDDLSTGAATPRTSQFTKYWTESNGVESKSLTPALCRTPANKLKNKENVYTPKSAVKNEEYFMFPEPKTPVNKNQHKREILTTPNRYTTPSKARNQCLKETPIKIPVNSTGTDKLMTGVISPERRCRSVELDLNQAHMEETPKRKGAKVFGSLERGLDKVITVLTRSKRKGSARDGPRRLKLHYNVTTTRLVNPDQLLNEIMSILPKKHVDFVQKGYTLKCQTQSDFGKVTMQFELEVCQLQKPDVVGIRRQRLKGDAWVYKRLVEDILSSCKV
Test: Kinase assay: MELK activity, phosphorylation of FITC-labeled histone H3 peptide measured by IMAP fluorescence polarization
Assay type: biochemical
Details: 50 micro-M ATP, FITC-labeled histone H3 peptide substrate, IMAP fluorescence polarization; read-out: IC50 (μM) (kinase assay)
measured-property: IC50 (µM)

>  <sample-smiles>
CN(C)CC1CCN(c2c(C(=O)C3CC3)cnc3ccc(-c4cc(F)c(O)c(Cl)c4)cc23)CC1

>  <measured-property>
IC50

>  <result-number>
0.0024

$$$$
>  <sample-smiles>
COc1cc(-c2ccc3ncc(C(C)=O)c(N4CCC(CN(C)C)CC4)c3c2)cc(Cl)c1O

>  <measured-property>
IC50

>  <result-number>
0.0022

$$$$
>  <sample-smiles>
CN(C)[C@H]1CC[C@H](CNc2c(C(=O)C3CC3)cnc3ccc(-c4cc(Cl)c(O)c(Cl)c4)cc23)CC1

>  <measured-property>
IC50

>  <result-number>
0.011

$$$$
>  <sample-smiles>
CN1CCN(C2CCN(c3c(C(=O)C4CC4)cnc4ccc(-c5ccc(O)c(Cl)c5)cc34)CC2)CC1

>  <measured-property>
IC50

>  <result-number>
0.005

$$$$

---

Target: MELK (Homo sapiens)
Experiment: Kinase assay: MELK activity, phosphorylation of FITC-labeled histone H3 peptide measured by IMAP fluorescence polarization
Format: biochemical
Conditions: read-out: IC50 (μM) (kinase assay)
Threshold 0.004 µM: IC50 strictly smaller gives Yes, otherwise No.

>  <compound>
NCCOc1ccc(Nc2c(C(=O)C3CC3)cnc3ccc(-c4cc(Cl)c(O)c(Cl)c4)cc23)cn1 [Example 723]

>  <assigned-label>
Yes

$$$$
>  <compound>
CC(=O)c1cnc2ccc(-c3cc(F)c(O)c(Cl)c3)cc2c1Nc1cccc(CCN(C)C)c1 [Example 759]

>  <assigned-label>
No

$$$$
>  <compound>
CN(C)Cc1cccc(Nc2c(C(=O)C3CC3)cnc3ccc(-c4cc(F)c(O)c(Cl)c4)cc23)c1 [Example 629]

>  <assigned-label>
No

$$$$
>  <compound>
COc1cc(-c2ccc3ncc(C(=O)C4CC4)c(Nc4ccc(Cn5ccnc5)cc4)c3c2)cc(Cl)c1O [Example 490]

>  <assigned-label>
No

$$$$
>  <compound>
CCC(=O)c1cnc2ccc(-c3cc(F)c(O)c(Cl)c3)cc2c1Nc1ccc(N2CCC(N)C2)nc1 (stereo not drawn) [Example 760]

>  <assigned-label>
Yes

$$$$
>  <compound>
O=C(c1cnc2ccc(-c3cc(Cl)c(O)c(Cl)c3)cc2c1N[C@H]1CC[C@H](CNCCF)CC1)C1CC1 [Example 700]

>  <assigned-label>
Yes

$$$$
>  <compound>
O=C(c1cnc2ccc(-c3cc(F)c(O)c(Cl)c3)cc2c1N[C@H]1CC[C@H](CN2CCC(O)C2)CC1)C1CC1 (stereo partly drawn) [Example 631]

>  <assigned-label>
Yes

$$$$
>  <compound>
COc1cc(-c2ccc3ncc(C(C)=O)c(Nc4cccc(CCN(C)C)c4)c3c2)cc(Cl)c1O [Example 730]

>  <assigned-label>
Yes

$$$$
>  <compound>
O=C(c1cnc2ccc(-c3cc(F)c(O)c(Cl)c3)cc2c1Nc1ccc(NC2CCNC2)nc1)C1CC1 (stereo not drawn) [Example 667]

>  <assigned-label>
No

$$$$
>  <compound>
CN1CCC(n2cc(Nc3c(C(=O)C4CC4)cnc4ccc(-c5cc(Cl)c(O)c(Cl)c5)cc34)cn2)CC1 [Example 593]

>  <assigned-label>
Yes

$$$$
>  <compound>
O=C(c1cnc2ccc(-c3cc(Cl)c(O)c(Cl)c3)cc2c1Nc1ccc(CN2CCCC2)nc1)C1CC1 [Example 658]

>  <assigned-label>
No

$$$$
>  <compound>
NC1CCCN(c2ccc(Nc3c(C(=O)C4CC4)cnc4ccc(-c5cc(F)c(O)c(F)c5)cc34)cn2)C1 (stereo not drawn) [Example 725]

>  <assigned-label>
Yes

$$$$
>  <compound>
NCc1ccc(Nc2c(C(=O)C3CC3)cnc3ccc(-c4cc(Cl)c(O)c(Cl)c4)cc23)cc1 [Example 507]

>  <assigned-label>
Yes

$$$$
>  <compound>
NC[C@H]1CC[C@H](Nc2c(C(=O)C3CC3)cnc3ccc(-c4cc(F)c(O)c(Cl)c4)cc23)CC1 [Example 501]

>  <assigned-label>
No

$$$$
>  <compound>
CN1CCC(n2cc(Nc3c(C(=O)C4CC4)cnc4ccc(-c5cc(F)c(O)c(Cl)c5)cc34)cn2)CC1 [Example 592]

>  <assigned-label>
Yes

$$$$

---

Tested on: HT-1197 cells
Assay: Cell-based assay: anti-proliferative activity, Cell Counting Kit-8, 72 hours (HT-1197, negative control without MELK expression)
Conditions: Homo sapiens, HT1197, 72 h, HT1197 cells (negative control), 72 hours
Structures can show the parent of a compound that is named as a salt.
Each record here notes measured log10(IC50).
measured-property: log10(IC50) (log10 of the value in µM)

>  <compound>
CN[C@H]1CC[C@H](Nc2c(C(C)=O)cnc3ccc(-c4cc(Cl)c(O)c(OC)c4)cc23)CC1

>  <tested-system>
HT-1197 cells

>  <result-number>
0.23

$$$$
>  <compound>
COc1cc(-c2ccc3ncc(C(=O)C4CC4)c(N4CCC(C5CCNCC5)CC4)c3c2)cc(Cl)c1O

>  <tested-system>
HT-1197 cells

>  <result-number>
0.53

$$$$
>  <compound>
CC(C)C(=O)c1cnc2ccc(-c3cc(F)c(O)c(Cl)c3)cc2c1N[C@H]1CC[C@H](CN(C)C)CC1

>  <tested-system>
HT-1197 cells

>  <result-number>
-0.77

$$$$
>  <compound>
COc1cc(-c2ccc3ncc(C(=O)C(C)C)c(N[C@H]4CC[C@H](CN(C)C)CC4)c3c2)cc(Cl)c1O

>  <tested-system>
HT-1197 cells

>  <result-number>
0.04

$$$$
>  <compound>
CCN(CC)CCO[C@H]1CC[C@H](Nc2c(C(C)=O)cnc3ccc(-c4cc(Cl)c(O)c(Cl)c4)cc23)CC1 [Example 868, hydrochloride]

>  <tested-system>
HT-1197 cells

>  <result-number>
0.45

$$$$
>  <compound>
NC1CCN(c2ccc(Nc3c(C(=O)C4CC4)cnc4ccc(-c5cc(Cl)c(O)c(Cl)c5)cc34)cn2)CC1

>  <tested-system>
HT-1197 cells

>  <result-number>
0.53

$$$$
>  <compound>
CC(=O)c1cnc2ccc(-c3cc(F)c(O)c(Cl)c3)cc2c1Nc1cncc(CCN2CCCC2)c1 [Example 880, hydrochloride]

>  <tested-system>
HT-1197 cells

>  <result-number>
1.66

$$$$
